Where these numbers come from: the MegaScale stability set (Tsuboyama et al. 2023)

Entries and their folding stability dG values follow.
B1: 2K2A (parent)
chain: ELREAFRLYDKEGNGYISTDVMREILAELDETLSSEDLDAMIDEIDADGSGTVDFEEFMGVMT

# Variants of: B1
# test: folding stability dG (cDNA display proteolysis); higher = more stable
# experimentalParameters: PBS, room temperature
Numbers only; they are read as kcal/mol.

ELREAFRLYDKEGNGYISTDVMREILAELDELLSSEDLDAMIDEIDADGSGTVDFEEFMGVMT	1.46
ELREIFRLYDKEGNGYISTDVMREILAELDETLSSEDLDAMIDEIDADGSGTVDFEEFMGVMT	2.78
ELREAFRLLDKEGNGYISTDVMREILAELDETLSSEDLDAMIDEIDADGSGTVDFEEFMGVMT	2.07
ELRQAFRLYDKEGNGYISTDVMREILAELDETLSSEDLDAMIDEIDADGSGTVDFEEFMGVMT	1.46
ELREAFRLYDKEGNGYISTDVMREILAELDETLSSEDLDAMIDEIDADGSGMVDFEEFMGVMT	1.74
ELREAFRLYDKEGNGYIWTDVMREILAELDETLSSEDLDAMIDEIDADGSGTVDFEEFMGVMT	0.742
ELREAFRLYDKEGNGYITTDVMREILAELDETLSSEDLDAMIDEIDADGSGTVDFEEFMGVMT	2.02
ELRCAFRLYDKEGNGYISTDVMREILAELDETLSSEDLDAMIDEIDADGSGTVDFEEFMGVMT	2.85
ELREAFRLYDMEGNGYISTDVMREILAELDETLSSEDLDAMIDEIDADGSGTVDFEEFMGVMT	1.77
ELREAFRLYDKEGNGYISTDVMREILAELDETLSSEDLDAPIDEIDADGSGTVDFEEFMGVMT	-0.862

Challenge: // lookup folding stability dG for EHREAFRLYDKEGNGYISTDVMREILAELDETLSSEDLDAMIDEIDADGSGTVDFEEFMGVMT
Response given: 1.16

Challenge: // lookup folding stability dG for ELREAFRLYDKEGNGYISTDVMREIAAELDETLSSEDLDAMIDEIDADGSGTVDFEEFMGVMT
Response given: 0.083

Challenge: // lookup folding stability dG for ELREAFRLYDKEGNGYISTDVMREILAELDETLSSEDLDAMIDEIDADGSGTVDFEEFMGVVT
Response given: 1.34

Challenge: // lookup folding stability dG for ELREAFRLYDKEGNGYISTDVMQEILAELDETLSSEDLDAMIDEIDADGSGTVDFEEFMGVMT
Response given: -0.482

Challenge: // lookup folding stability dG for ELREAFRLYDKEGNGYISTDVMREILAELDETLSSEDLDAMIDEIDADGSGAVDFEEFMGVMT
Response given: 1.11

Challenge: // lookup folding stability dG for ELREAFRLYDKEGNGYISTDVMREILAELSETLSSEDLDAMIDEIDADGSGTVDFEEFMGVMT
Response given: 1.4

Challenge: // lookup folding stability dG for ELREAFRLYDKEGNGYISTDVMREILAELDETLSSEDLDAMIDEIDNDGSGTVDFEEFMGVMT
Response given: 1.62
